Value source: patent US20140228287A1

Target: plasma DPP IV (Mus musculus)
Sequence (P28843 37-760 limits assumed): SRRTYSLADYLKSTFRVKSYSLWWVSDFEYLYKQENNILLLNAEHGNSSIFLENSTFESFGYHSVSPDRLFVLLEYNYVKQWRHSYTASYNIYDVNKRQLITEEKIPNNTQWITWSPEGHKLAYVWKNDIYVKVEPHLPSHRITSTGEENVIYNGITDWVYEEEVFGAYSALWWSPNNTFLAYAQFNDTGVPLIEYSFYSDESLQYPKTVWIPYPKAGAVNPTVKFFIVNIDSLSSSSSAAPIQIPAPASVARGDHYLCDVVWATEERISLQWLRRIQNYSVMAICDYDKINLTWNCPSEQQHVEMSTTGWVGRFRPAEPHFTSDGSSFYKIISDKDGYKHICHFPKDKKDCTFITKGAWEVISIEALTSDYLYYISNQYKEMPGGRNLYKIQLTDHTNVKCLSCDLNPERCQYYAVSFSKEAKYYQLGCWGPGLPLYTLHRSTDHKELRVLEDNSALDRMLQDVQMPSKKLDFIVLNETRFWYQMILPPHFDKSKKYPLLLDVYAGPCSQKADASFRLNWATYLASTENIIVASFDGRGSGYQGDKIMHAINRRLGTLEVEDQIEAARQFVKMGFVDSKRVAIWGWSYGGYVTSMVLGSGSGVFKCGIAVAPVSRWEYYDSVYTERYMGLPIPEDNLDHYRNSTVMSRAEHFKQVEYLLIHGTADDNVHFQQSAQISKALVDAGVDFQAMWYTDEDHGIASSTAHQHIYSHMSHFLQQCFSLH
Test: Inhibition of plasma DPP IV activity in vitro, mouse plasma
pIC50: −log10 of the molar value. Counter-ions that a name gives are not always drawn.
metric.name: pIC50

Q) Dear colleague, please send me the reported pIC50 for CC#CCn1c(N2CCC[C@@H](N)C2)nc2c1c(=O)n(Cc1ncccc1C#N)c(=O)n2C [monohydrochloride] when you can.
A) ~8.77

====

Molecular target: DPP IV (Homo sapiens)
Sequence (P27487 whole entry, species assumed): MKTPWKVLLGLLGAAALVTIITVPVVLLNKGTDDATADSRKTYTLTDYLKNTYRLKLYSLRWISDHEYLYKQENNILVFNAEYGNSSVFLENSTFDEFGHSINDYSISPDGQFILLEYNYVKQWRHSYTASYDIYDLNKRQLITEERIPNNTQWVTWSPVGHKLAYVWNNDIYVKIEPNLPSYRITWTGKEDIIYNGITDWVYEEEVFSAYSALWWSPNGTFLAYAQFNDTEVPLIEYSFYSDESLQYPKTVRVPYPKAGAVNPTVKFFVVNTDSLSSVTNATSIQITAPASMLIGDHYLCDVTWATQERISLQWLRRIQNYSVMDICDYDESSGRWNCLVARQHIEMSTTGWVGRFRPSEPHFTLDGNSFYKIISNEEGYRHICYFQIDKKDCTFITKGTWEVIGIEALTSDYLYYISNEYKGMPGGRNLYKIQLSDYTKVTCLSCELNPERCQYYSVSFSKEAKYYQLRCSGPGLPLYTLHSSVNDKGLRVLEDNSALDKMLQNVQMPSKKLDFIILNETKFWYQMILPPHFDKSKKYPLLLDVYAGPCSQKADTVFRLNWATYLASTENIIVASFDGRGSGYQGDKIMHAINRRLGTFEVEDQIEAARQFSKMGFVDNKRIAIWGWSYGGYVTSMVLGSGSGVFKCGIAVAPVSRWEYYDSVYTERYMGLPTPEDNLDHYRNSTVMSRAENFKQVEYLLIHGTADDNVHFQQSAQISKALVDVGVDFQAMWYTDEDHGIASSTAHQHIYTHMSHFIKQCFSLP
Test: In vitro DPP IV inhibition
Assay type: biochemical
Conditions: in vitro; dipeptide artificial substrate
pIC50: −log10 of the molar value. Structures can show the parent of a compound that is named as a salt.
metric.name: pIC50

Q) Please supply the value of reported pIC50 for the item CC#CCn1c(N2CCC[C@@H](N)C2)nc2c1c(=O)n(Cc1ncccc1C#N)c(=O)n2C [monohydrochloride]
A) ~9.00

====

Target: plasma DPP IV (Homo sapiens, UniProt P27487)
Sequence (P27487 39-766 limits assumed): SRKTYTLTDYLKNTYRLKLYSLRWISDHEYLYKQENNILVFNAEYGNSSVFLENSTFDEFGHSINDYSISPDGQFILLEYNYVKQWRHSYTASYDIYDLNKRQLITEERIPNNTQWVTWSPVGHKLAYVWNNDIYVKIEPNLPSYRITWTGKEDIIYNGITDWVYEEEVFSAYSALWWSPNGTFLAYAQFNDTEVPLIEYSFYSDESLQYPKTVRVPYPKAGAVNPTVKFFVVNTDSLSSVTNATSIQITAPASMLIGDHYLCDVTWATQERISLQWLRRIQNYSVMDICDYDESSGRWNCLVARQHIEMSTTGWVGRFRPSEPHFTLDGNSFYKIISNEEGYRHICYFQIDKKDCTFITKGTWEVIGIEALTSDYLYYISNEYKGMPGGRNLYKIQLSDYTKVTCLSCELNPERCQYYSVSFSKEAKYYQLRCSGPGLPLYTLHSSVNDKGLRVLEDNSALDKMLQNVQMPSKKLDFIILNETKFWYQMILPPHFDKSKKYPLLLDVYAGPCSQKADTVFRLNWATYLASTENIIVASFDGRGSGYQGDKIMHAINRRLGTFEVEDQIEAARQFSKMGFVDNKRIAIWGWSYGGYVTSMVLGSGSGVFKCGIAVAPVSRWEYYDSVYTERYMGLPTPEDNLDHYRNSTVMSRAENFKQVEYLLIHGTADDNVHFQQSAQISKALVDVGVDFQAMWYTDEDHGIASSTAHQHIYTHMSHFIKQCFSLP
Experiment: Inhibition of plasma DPP IV activity in vitro, human plasma
Experimental: Studies were also conducted to assess the inhibitory effect of this compound on plasma DPP IV activity in several species.
Where a name gives a salt, the structure may show the parent alone.
metric.name: IC50

Q) Tell me its IC50 given CC#CCn1c(N2CCC[C@@H](N)C2)nc2c1c(=O)n(Cc1ncccc1C#N)c(=O)n2C [monohydrochloride] as the entry.
A) ~600 pM

====

Experiment: Exploratory single dose PK/PD (1.0/5.0/10.0 mg/kg) in cats: pharmacokinetics
Type: in vivo
Settings: male, domestic short hair, plasma; 10 mg/kg single oral, cat; free base by LC-MS/MS
Counter-ions that a name gives are not always drawn.
metric.name: Tmax (h)
The reply should contain only the number, in h.

Q) Output Tmax of CC#CCn1c(N2CCC[C@@H](N)C2)nc2c1c(=O)n(Cc1ncccc1C#N)c(=O)n2C [monohydrochloride]
A) 1.33
